test system: RS4; 11 with G101V mutation; assay: In vitro anti-proliferation assay (ATPlite luminescence) in BCL-2-dependent ALL cell line RS4;11 with G101V mutation; assay type: cell-based; details: Homo sapiens, RS4-11, 72 h; read-out: RS411-G101V IC50
MEASURED_QUANTITY: pIC50
One number for each entry, as −log10 of the molar value.

Reference set (4 entries):
Cc1ccccc1[C@@H]1CN(Cc2cnc(N3CCOC[C@@H]3C)c3c2C(C)(C)CCO3)CCN1C1CC2(CCN(c3ccc(C(=O)NS(=O)(=O)c4cc5c(c([N+](=O)[O-])c4)N[C@H](C4CCOCC4)CO5)c(N4c5cc6cc[nH]c6nc5O[C@H]5COCC[C@@H]54)c3)CC2)C1 ... 8.73
CC1(C)CCC(CN2CCN(c3ccc(C(=O)NS(=O)(=O)c4ccc(NCC5CCOCC5)c([N+](=O)[O-])c4)c(Oc4cnc5[nH]ccc5c4)c3)CC2)=C(c2ccc(Cl)cc2)C1 ... 6.11
CC(C)Oc1ccccc1[C@@H]1CN([C@@H]2COc3c(F)cc(F)cc3C2)CCN1C1CC2(CCN(c3ccc(C(=O)NS(=O)(=O)c4cc5c(c([N+](=O)[O-])c4)N[C@H](C4CCOCC4)CO5)c(N4c5cc6cc[nH]c6nc5O[C@H]5COCC[C@@H]54)c3)CC2)C1 ... 6.58
CC(C)Oc1ccccc1[C@@H]1CN([C@@H]2CCOc3nc(N4CCOC[C@@H]4C)c(F)cc32)CCN1C1CC2(CCN(c3ccc(C(=O)NS(=O)(=O)c4cc5c(c([N+](=O)[O-])c4)N[C@H](C4CCOCC4)CO5)c(N4c5cc6cc[nH]c6nc5O[C@H]5COCC[C@@H]54)c3)CC2)C1 ... 7.25

I need pIC50 for every entry listed below, if you could help.
1. CC[C@@H](c1ccc(F)c(F)c1)N1CCN(C2CC3(CCN(c4ccc(C(=O)NS(=O)(=O)c5cc6c(c([N+](=O)[O-])c5)N[C@H](C5CCOCC5)CO6)c(N5c6cc7cc[nH]c7nc6O[C@H]6COCC[C@@H]65)c4)CC3)C2)[C@H](c2ccccc2OC(C)C)C1
2. CC[C@H](c1ccc(F)c(F)c1)N1CCN(C2CC3(CCN(c4ccc(C(=O)NS(=O)(=O)c5cc6c(c([N+](=O)[O-])c5)N[C@H](C5CCOCC5)CO6)c(N5c6cc7cc[nH]c7nc6O[C@H]6COCC[C@@H]65)c4)CC3)C2)[C@H](c2ccccc2OC(C)C)C1
3. COc1cc(CN2CCN(C3CC4(CCN(c5ccc(C(=O)NS(=O)(=O)c6ccc(NCC7CCOCC7)c([N+](=O)[O-])c6)c(N6c7cc8cc[nH]c8nc7O[C@H]7COCC[C@@H]76)c5)CC4)C3)[C@@H](c3ccccc3OC(C)C)C2)cnc1N1CCOCC1

Reply |
1. 7.34
2. 6.68
3. 8.14

====

system: RS4; 11 with G101V mutation; assay: In vitro anti-proliferation assay (ATPlite luminescence) in BCL-2-dependent ALL cell line RS4;11 with G101V mutation; assay type: cell-based; conditions: cellular anti-proliferative IC50, about 72 hours, medium with 10% FBS, ATPlite; read-out: RS411-G101V IC50
I'd appreciate it if you could supply pIC50 values for the items below.
One number for each entry, as −log10 of the molar value.

Worked examples follow.
Cc1ccccc1[C@@H]1CN(Cc2ccc(N3CCOC[C@H]3C)c(F)c2)CCN1C1CC2(CCN(c3ccc(C(=O)NS(=O)(=O)c4ccc(NC[C@H]5CC[C@](C)(O)CC5)c([N+](=O)[O-])c4)c(N4c5cc6cc[nH]c6nc5O[C@H]5COCC[C@@H]54)c3)CC2)C1 [Example 155] ... 7.04
COc1cc(CN2CCN(C3CC4(CCN(c5ccc(C(=O)NS(=O)(=O)c6ccc(NCC7CCC(C)(O)CC7)c([N+](=O)[O-])c6)c(N6c7cc8cc[nH]c8nc7O[C@H]7COCC[C@@H]76)c5)CC4)C3)[C@H](c3ccccc3C)C2)cnc1N1CCOCC1 (stereo partly shown) [Example 123] ... 8.54
CC(C)Oc1ccccc1[C@@H]1CN(Cc2ccc(C(F)(F)F)nc2)CCN1C1CC2(CCN(c3ccc(C(=O)NS(=O)(=O)c4cc5c(c([N+](=O)[O-])c4)N[C@H](C4CCOCC4)CO5)c(N4c5cc6cc[nH]c6nc5O[C@H]5COCC[C@@H]54)c3)CC2)C1 [Example 261] ... 8.41

Consider now this further compound.
Entry CC(C)Oc1ccccc1[C@@H]1CN(Cc2ccc(C(C)C)nc2)CCN1C1CC2(CCN(c3ccc(C(=O)NS(=O)(=O)c4cc5c(c([N+](=O)[O-])c4)N[C@H](C4CCOCC4)CO5)c(N4c5cc6cc[nH]c6nc5O[C@H]5COCC[C@@H]54)c3)CC2)C1 [Example 255] — recorded pIC50 = 8.19
